Tested on: Staphylococcus aureus
assay-explanation: Antibacterial activity against Staphylococcus aureus assessed as reduction in microbial growth at 25 ug/ml incubated for 24 hrs
Assay type: functional, organism-based
test-settings: dose 25.0 µg/ml
Activity calls are given as the source filed them. No cut-off for these calls is given here.
value-kind: Activity

Some solved entries appear below for comparison.
COc1cc(OCc2ccc(C(F)(F)F)cc2)c2c(=O)c(OC)c(-c3cccc(Cl)c3OCc3ccc(C(F)(F)F)cc3)oc2c1OC inactive
COc1cc(O)c2c(=O)c(OC)c(-c3cccc(Cl)c3OC(=O)/C=C/c3ccc(C)cc3)oc2c1OC inactive
COc1cc(O)c2c(=O)c(OC)c(-c3cccc(Cl)c3OC(=O)/C=C/c3cccnc3)oc2c1OC inactive
COc1cc(O)c2c(=O)c(OC)c(-c3cc(Br)cc(Cl)c3O)oc2c1OC inactive
COc1cc(O)c2c(=O)c(OC)c(-c3ccccc3O)oc2c1OC inactive

Using the record for COc1cc(O)c2c(=O)c(OC)c(-c3cccc(Cl)c3OC(=O)c3cccc(N)c3)oc2c1OC , state its measured Activity.
inactive

For the molecule COc1cc(O)c2c(=O)c(OC)c(-c3cccc(Cl)c3OC(=O)/C=C/c3ccccc3)oc2c1OC , give its reported Activity.
inactive

Please list Activity recorded for the molecule COc1cc(O)c2c(=O)c(OC)c(-c3cccc(Cl)c3OCc3ccc(F)cc3)oc2c1OC
inactive

====

Here, each record is paired with measured MIC90 data.
Tested on: Mycobacterium tuberculosis
assay-explanation: Antitubercular activity against Mycobacterium tuberculosis H37Ra assessed as reduction in microbial growth
Type: functional
Give the value, in units of µM, as a plain number.

Solved entries:
COc1cc(O)c2c(=O)c(OC)c(-c3cccc(Cl)c3OC(=O)c3cccnc3)oc2c1OC 2.1
COc1cc(OC(=O)c2cccc(F)c2)c2c(=O)c(OC)c(-c3cccc(Cl)c3OC(=O)c3cccc(F)c3)oc2c1OC 1.6
COc1ccc(C(=O)Oc2c(Cl)cccc2-c2oc3c(OC)c(OC)cc(O)c3c(=O)c2OC)cc1 2

Pending compound:
Report MIC90 on Mycobacterium tuberculosis for this entry: COc1cc(O)c2c(=O)c(OC)c(-c3cccc(Cl)c3OC(=O)/C=C/c3ccc(C)cc3)oc2c1OC
1.9

====

Measured MIC90, listed per entry for reference.
System: Mycobacterium tuberculosis
assay-explanation: Antitubercular activity against Mycobacterium tuberculosis H37Ra assessed as reduction in microbial growth
Format: functional
Answer as a quantity: numeral, then unit.

COc1cc(O)c2c(=O)c(OC)c(-c3cccc(Br)c3O)oc2c1OC 1.2 µM
COc1cc(O)c2c(=O)c(OC)c(-c3cccc(Cl)c3OC(=O)/C=C/c3cccc(Cl)c3)oc2c1OC 0.9 µM
COc1cc(O)c2c(=O)c(OC)c(-c3cccc(Cl)c3OC(=O)/C=C/c3cccnc3)oc2c1OC 2 µM
COc1cc(O)c2c(=O)c(OC)c(-c3cccc(Cl)c3OC(=O)/C=C/c3ccccc3Cl)oc2c1OC 0.7 µM
COc1cc(O)c2c(=O)c(OC)c(-c3cccc(Cl)c3OC(=O)/C=C/c3ccccc3)oc2c1OC 2 µM
COc1cc(O)c2c(=O)c(OC)c(-c3cccc(Cl)c3OC(=O)c3cccc(N)c3)oc2c1OC 2 µM

Complete the entry with MIC90 for NNC(=O)c1ccncc1
0.3 µM

Return MIC90 (reported value) for this compound: COc1ccc(/C=C/C(=O)Oc2c(Cl)cccc2-c2oc3c(OC)c(OC)cc(O)c3c(=O)c2OC)cc1
1.9 µM

Output MIC90 of COc1cc(O)c2c(=O)c(OC)c(-c3cccc(Cl)c3OC(=O)c3cccc(Cl)c3)oc2c1OC
1.9 µM
